As a worked illustration, we turn to MIC data collected for E. avium EAY-30.
measured_endpoint: MIC (µg/mL)

- molecule: "COc1c(N2CC[C@@](CN)(CF)C2)c(F)cc2c(=O)c(C(=O)O)cn(C3CC3)c12"
  reported: 0.2
- molecule: "COc1c(N2CC[C@](N)(CF)C2)c(F)cc2c(=O)c(C(=O)O)cn(C3CC3)c12"
  reported: 0.1
- molecule: "COc1c(N2CC[C@@](N)(CF)C2)c(F)cc2c(=O)c(C(=O)O)cn(C3CC3)c12"
  reported: 0.1
- molecule: "COc1c(N2CCC(N)(CF)C2)c(F)cc2c(=O)c(C(=O)O)cn(C3CC3)c12 (stereo not shown)"
  reported: 0.1
